Values from ChEMBL document CHEMBL1126608

Biological target: Muscarinic acetylcholine receptor (Homo sapiens) (UniProt P20309+P08173+P11229+P08172+P08912)
Conditions: Cavia porcellus
# if measured ID50 < 20 mg/kg: Yes  # else: No

> print(dat)
                                   compound  answer.label
1  O=C(CN1CCN(Cc2ccccc2)CC1)C(O)(c1ccccc1)C1CCCCC1 (stereo not given)           Yes
2  O=C(CN1CCN(Cc2ccc(Cl)cc2)CC1)C(O)(c1ccccc1)C1CCC1 (stereo not given)           Yes
3  CC(C)CC(O)(C(=O)CN1CCN(Cc2ccccc2)CC1)c1ccccc1 (stereo not given)            No
4  O=C(CN1CCN(Cc2ccc([N+](=O)[O-])cc2)CC1)C(O)(c1ccccc1)C1CCC1 (stereo not given)            No
5  O=C(CN1CCN(C2CCC2)CC1)C(O)(c1ccccc1)C1CCC1 (stereo not given)           Yes

====

Below, each of the compounds is paired with its reported log10 of Kb value.
Molecular target: Muscarinic acetylcholine receptor M2 (Homo sapiens)
Sequence (whole entry): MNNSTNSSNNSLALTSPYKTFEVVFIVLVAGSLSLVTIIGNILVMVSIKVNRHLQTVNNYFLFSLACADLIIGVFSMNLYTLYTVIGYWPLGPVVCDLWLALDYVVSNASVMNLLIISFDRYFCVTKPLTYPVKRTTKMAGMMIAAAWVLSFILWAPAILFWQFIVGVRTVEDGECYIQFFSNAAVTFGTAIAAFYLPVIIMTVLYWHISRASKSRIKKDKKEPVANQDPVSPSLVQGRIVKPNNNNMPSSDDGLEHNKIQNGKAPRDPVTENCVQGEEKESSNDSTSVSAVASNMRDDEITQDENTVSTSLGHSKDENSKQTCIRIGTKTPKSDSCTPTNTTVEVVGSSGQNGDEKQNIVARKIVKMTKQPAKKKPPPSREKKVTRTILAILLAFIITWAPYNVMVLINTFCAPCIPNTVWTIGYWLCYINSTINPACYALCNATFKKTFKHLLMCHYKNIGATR
Experiment: Antagonist activity against muscarinic M2 receptor from guinea pig atria
Assay type: functional
Conditions: Cavia porcellus; target entry is the homologue from another species
PARAMETER: log10 of Kb (log10 of the value in nM)

> print(dat)
                                    compound    parameter  recorded.value
 1  O=C(CN1CCN(C2CCC2)CC1)C(O)(c1ccccc1)C1CCC1 (configuration not stated)  log10 of Kb            3.26
 2  O=C(CN1CCN(C/C=C\c2ccccc2)CC1)C(O)(c1ccccc1)C1CCC1 (configuration not stated)  log10 of Kb            0.36
 3  O=C(CN1CCN(Cc2ccccc2)CC1)C(O)(c1ccccc1)c1ccccc1  log10 of Kb            3.16
 4  O=C(CN1CCNCC1)C(O)(c1ccccc1)C1CCC1 (configuration not stated)  log10 of Kb            2.97
 5  C=CCN1CCN(CC(=O)C(O)(c2ccccc2)C2CCC2)CC1 (configuration not stated)  log10 of Kb            2.48
 6  O=C(CN1CCN(CCO)CC1)C(O)(c1ccccc1)C1CCC1 (configuration not stated)  log10 of Kb            3.37
 7  O=C(CN1CCN(Cc2cccs2)CC1)C(O)(c1ccccc1)C1CCC1 (configuration not stated)  log10 of Kb            2.69
 8  CN1CCN(CC(=O)C(O)(c2ccccc2)C2CCCCC2)CC1 (configuration not stated)  log10 of Kb            2.32
 9  O=C(CN1CCN(Cc2ccc([N+](=O)[O-])cc2)CC1)C(O)(c1ccccc1)C1CCC1 (configuration not stated)  log10 of Kb            3.43
10  O=C(CN1CCC(N2CCCC2)CC1)C(O)(c1ccccc1)C1CCCCC1 (configuration not stated)  log10 of Kb            3.65
11  Cc1ccc(CN2CCN(CC(=O)C(O)(c3ccccc3)C3CCC3)CC2)cc1 (configuration not stated)  log10 of Kb            1.91
12  O=C(CN1CCN(Cc2ccccc2)CC1)C(O)(c1ccccc1)C1CCCC1 (configuration not stated)  log10 of Kb            1.89
13  O=C(CN1CCC(N2CCCC2)CC1)C(O)(c1ccccc1)C1CCC1 (configuration not stated)  log10 of Kb            3.39
14  C#CCN1CCN(CC(=O)C(O)(c2ccccc2)C2CCCCC2)CC1 (configuration not stated)  log10 of Kb            3.75

====

Target: Muscarinic acetylcholine receptor (Homo sapiens) (UniProt P20309+P08173+P11229+P08172+P08912)
Test: In vivo antimuscarinic activity to decrease carbachol-stimulated salivation in guinea pig
Assay type: functional, organism-based
Details: Cavia porcellus; target entry is the homologue from another species
Entries and their ED50 values follow.
PARAMETER: ED50

> print(dat)
                                   molecule  recorded.value
1  CN(C)CCNCC(=O)C(O)(c1ccccc1)C1CCCCC1 (stereo not given)      0.13 mg/kg
2  O=C(CN1CCN(CCO)CC1)C(O)(c1ccccc1)C1CCCCC1 (stereo not given)      > 10 mg/kg
3  C=C(C)CN1CCN(CC(=O)C(O)(c2ccccc2)C2CCC2)CC1 (stereo not given)        17 mg/kg
4  CN1CCN(CC(=O)C(O)(c2ccccc2)C2CCCCC2)CC1 (stereo not given)      1.84 mg/kg
5  O=C(CN1CCN(Cc2ccc3c(c2)OCO3)CC1)C(O)(c1ccccc1)C1CCC1 (stereo not given)         4 mg/kg

====

Target: Muscarinic acetylcholine receptor M2 (Homo sapiens)
Experiment: Antagonist activity against muscarinic M2 receptor from guinea pig atria
Type: functional
Conditions: Cavia porcellus; target entry is the homologue from another species
Label satisfied when Kb >= 0.4 µM; otherwise not satisfied.

> print(dat)
                                    compound                        measurement.target   answer.label
 1  CN(C)CCNCC(=O)C(O)(c1ccccc1)C1CCCCC1 (stereo unspecified)  Muscarinic acetylcholine receptor M2 (Homo sapiens)  not satisfied
 2  O=C(CN1CCN(CC(=O)C(O)(c2ccccc2)C2CCC2)CC1)C(O)(c1ccccc1)C1CCC1 (stereo unspecified)  Muscarinic acetylcholine receptor M2 (Homo sapiens)      satisfied
 3  O=C(CN1CCN(CCc2ccccc2)CC1)C(O)(c1ccccc1)C1CCC1 (stereo unspecified)  Muscarinic acetylcholine receptor M2 (Homo sapiens)      satisfied
 4  O=C(CN1CCN(Cc2ccccc2)CC1)C(O)(c1ccccc1)C1CCCCC1 (stereo unspecified)  Muscarinic acetylcholine receptor M2 (Homo sapiens)  not satisfied
 5  C=CCN1CCN(CC(=O)C(O)(c2ccccc2)C2CCCCC2)CC1 (stereo unspecified)  Muscarinic acetylcholine receptor M2 (Homo sapiens)      satisfied
 6  COc1ccc(CN2CCN(CC(=O)C(O)(c3ccccc3)C3CCC3)CC2)cc1 (stereo unspecified)  Muscarinic acetylcholine receptor M2 (Homo sapiens)  not satisfied
 7  O=C(CN1CCN(Cc2ccccc2)CC1)C(O)(c1ccccc1)C1CC1 (stereo unspecified)  Muscarinic acetylcholine receptor M2 (Homo sapiens)  not satisfied
 8  O=C(CN1CCC(O)CC1)C(O)(c1ccccc1)C1CCC1 (stereo unspecified)  Muscarinic acetylcholine receptor M2 (Homo sapiens)      satisfied
 9  COc1cccc(CN2CCN(CC(=O)C(O)(c3ccccc3)C3CCC3)CC2)c1 (stereo unspecified)  Muscarinic acetylcholine receptor M2 (Homo sapiens)  not satisfied
10  CN1CCN(CC(=O)C(O)(c2ccccc2)C2CCC2)CC1 (stereo unspecified)  Muscarinic acetylcholine receptor M2 (Homo sapiens)  not satisfied
11  CCCN1CCN(CC(=O)C(O)(c2ccccc2)C2CCC2)CC1 (stereo unspecified)  Muscarinic acetylcholine receptor M2 (Homo sapiens)      satisfied

====

Target: UniProt P08172
Experiment: Antagonist activity against muscarinic M2 receptor from guinea pig atria
Type: functional
Details: Cavia porcellus; target entry is the homologue from another species
The molecules listed here are annotated with their Kb.
PARAMETER: Kb (nM)

> print(dat)
                                    molecule  parameter  unit.descriptor  qualifying.sign  recorded.value
 1  N#CCN1CCN(CC(=O)C(O)(c2ccccc2)C2CCC2)CC1 (stereo not given)         Kb               nM                >           30000
 2  CCOc1ccccc1N1CCN(CC(=O)C(O)(c2ccccc2)C2CCC2)CC1 (stereo not given)         Kb               nM                >           10000
 3  C=C(C)CN1CCN(CC(=O)C(O)(c2ccccc2)C2CCC2)CC1 (stereo not given)         Kb               nM                =             551
 4  CC(C)=CCN1CCN(CC(=O)C(O)(c2ccccc2)C2CCC2)CC1 (stereo not given)         Kb               nM                =             305
 5  O=C(CN1CCN(Cc2ccc3c(c2)OCO3)CC1)C(O)(c1ccccc1)C1CCC1 (stereo not given)         Kb               nM                =              45
 6  O=C(CN1CCN(Cc2ccccc2Cl)CC1)C(O)(c1ccccc1)C1CCC1 (stereo not given)         Kb               nM                >           10000
 7  O=C(CN1CCN(CCO)CC1)C(O)(c1ccccc1)C1CCCCC1 (stereo not given)         Kb               nM                =             530
 8  O=C(CN1CCN(CC(=O)C(O)(c2ccccc2)C2CCC2)CC1)N1CCCC1 (stereo not given)         Kb               nM                >            3000
 9  O=C(CN1CCN(Cc2cccc(Cl)c2)CC1)C(O)(c1ccccc1)C1CCC1 (stereo not given)         Kb               nM                =             380
10  O=C(CN1CCN(Cc2ccc(Cl)cc2)CC1)C(O)(c1ccccc1)C1CCC1 (stereo not given)         Kb               nM                =             515
